Each entry below carries its reported microsomal CLint at 10 µM.
assay: Clearance in human liver microsomes at 10 uM preincubated for 5 mins followed by NADPH addition by LC-MS/MS analysis; assay type: ADME, Microsome; details: read-out: CLH
Numbers only here, please. The scale is µL/min/mg.

Cc1cc(C)c(S(=O)(=O)N(CC(=O)O)c2ccc(Nc3ccnc(N4CCCC4)n3)cc2)c(C)c1 : 32.6

Query compound follows.
Asked: Entry "Cc1cc(C)c(S(=O)(=O)N(CC(=O)O)c2ccc(Nc3ccnc(N4CCNCC4)n3)cc2)c(C)c1" has what microsomal CLint at 10 µM?
Given back: 8.97

====

assay: AUC (0 to t) in plasma of human HCT116 cells xenografted BALB/c mouse at 80 mg/kg, po administered as single dose by LC-MS/MS analysis; format: ADME, organism-based
measured-quantity: AUC(0-t) (µg·h/mL)
Numbers only here, please. The scale is µg·h/mL.

Asked: Entry "Cc1cc(C)c(S(=O)(=O)N(CC(=O)O)c2ccc(Nc3ccnc(N4CCNCC4)n3)cc2)c(C)c1" has what AUC(0-t)?
Given back: 533

====

Each entry below carries its reported remaining at 0.5 h, 1 µM.
assay: Stability of the compound in mouse plasma assessed as parent compound remaining at 1 uM measured after 30 mins by LC-MS/MS analysis; assay type: ADME, cell-free; settings: read-out: Stability
Numbers only here, please. The scale is %.

Cc1cc(C)c(S(=O)(=O)N(CC(=O)O)c2ccc(Nc3ccnc(N4CCNCC4)n3)cc2)c(C)c1 : 102

Asked: Entry "Cc1cc(C)c(S(=O)(=O)N(CC(=O)O)c2ccc(Nc3ccnc(N4CCCC4)n3)cc2)c(C)c1" has what remaining at 0.5 h, 1 µM?
Given back: 86

====

Each entry below carries its reported remaining at 1.5 h, 1 µM.
experiment: Stability of the compound in mouse plasma assessed as parent compound remaining at 1 uM measured after 90 mins by LC-MS/MS analysis; assay type: ADME, cell-free; details: read-out: Stability
Numbers only here, please. The scale is %.

Cc1cc(C)c(S(=O)(=O)N(CC(=O)O)c2ccc(Nc3ccnc(N4CCNCC4)n3)cc2)c(C)c1 : 105

Asked: Entry "Cc1cc(C)c(S(=O)(=O)N(CC(=O)O)c2ccc(Nc3ccnc(N4CCCC4)n3)cc2)c(C)c1" has what remaining at 1.5 h, 1 µM?
Given back: 59

====

assay: Half life in tumor of human HCT116 cells xenografted BALB/c mouse at 80 mg/kg, po administered as single dose by LC-MS/MS analysis; type: ADME, organism-based, Neoplasm
measured-quantity: half-life (h)
Numbers only here, please. The scale is h.

Asked: Entry "Cc1cc(C)c(S(=O)(=O)N(CC(=O)O)c2ccc(Nc3ccnc(N4CCNCC4)n3)cc2)c(C)c1" has what half-life?
Given back: 4.66

====

Each entry below carries its reported remaining at 1 h, 1 µM.
experiment: Stability of the compound in human plasma assessed as parent compound remaining at 1 uM measured after 60 mins by LC-MS/MS analysis; format: ADME, cell-free; settings: read-out: Stability
Numbers only here, please. The scale is %.

Asked: Entry "Cc1cc(C)c(S(=O)(=O)N(CC(=O)O)c2ccc(Nc3ccnc(N4CCCC4)n3)cc2)c(C)c1" has what remaining at 1 h, 1 µM?
Given back: 76

Asked: Entry "Cc1cc(C)c(S(=O)(=O)N(CC(=O)O)c2ccc(Nc3ccnc(N4CCNCC4)n3)cc2)c(C)c1" has what remaining at 1 h, 1 µM?
Given back: 102

Where do these numbers come from? They come from ChEMBL document CHEMBL4376883.
